test system: Hepatitis C virus NS3 helicase; test: blockers of NS3h binding to ssDNA – biochemical, fluorescence polarization, LOPAC1280 library, primary screen (AID 687035); conditions: Purified HCV NS3 helicase, Cy5-dT15 ssDNA binding fluorescence polarization; concentration not given here
Calls of active or inactive are those of the source. No stated cut-off is given here; in the data, active means inhibition above about 37%; inactive means the rest.
Result category, one only: active, inactive

Previously resolved entries follow.
COMPOUND	ASSIGNED_CLASS
CSc1ccc2c(c1)C(N1CCN(C)CC1)Cc1ccccc1S2 (stereo unspecified)	inactive
NC(=O)OCC(COC(N)=O)c1ccccc1	inactive
O=C1N(c2ccccc2)c2ccccc2C1(Cc1ccncc1)Cc1ccncc1	inactive
COc1ccc(C2CNC(=O)C2)cc1OC1CCCC1 (stereo unspecified)	inactive
Clc1ccc2nsnc2c1NC1=NCCN1	inactive
C[n+]1cc2c3c(ccc2c2ccc4cc5c(cc4c21)OCO5)OCO3	inactive

// return assay outcome for Cc1ccc(C(=O)Nc2ccc(S(=O)(=O)O)c3cc(S(=O)(=O)O)cc(S(=O)(=O)O)c23)cc1NC(=O)c1cccc(NC(=O)Nc2cccc(C(=O)Nc3cc(C(=O)Nc4ccc(S(=O)(=O)O)c5cc(S(=O)(=O)O)cc(S(=O)(=O)O)c45)ccc3C)c2)c1 active

// return assay outcome for Oc1ccc(C2CNCCc3c2cc(O)c(O)c3Cl)cc1 (stereo unspecified) inactive

// return assay outcome for N[C@@H](Cc1ccc(O)c(O)c1)C(=O)O inactive

// return assay outcome for CN(C)CCCN1c2ccccc2Sc2ccccc21 inactive

// return assay outcome for Clc1ccc(C(c2ccccc2Cl)C(Cl)Cl)cc1 (stereo unspecified) inactive

---

assay: compounds altering circadian rhythm period length – cell-based, LOPAC library, luminescence reporter (AID 2774); details: circadian reporter cells, at 7 µM, actives lie on both sides;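 further: values are relative to mean of DMSO wells on each plate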
Activity calls are given as the source filed them. The rule behind the calls is not given here.
Field: period change. Provide a value for each of the molecules that follow.

Some molecules with recorded period change:
MOLECULE	REPORTED_RESULT
COc1ccc(CCN(C)CCCC(C#N)(c2ccc(OC)c(OC)c2)C(C)C)cc1OC (stereo not drawn)	0.12 h (inactive)
Cc1nc2n(c(=O)c1CCN1CCC(c3noc4cc(F)ccc34)CC1)CCCC2	0.015 h (inactive)
C[C@]12C[C@H](O)[C@H]3[C@@H](CCC4=CC(=O)CC[C@@]43C)[C@@H]1CC[C@@H]2C(=O)CO	-0.34 h (inactive)
CN(C)CCCN1c2ccccc2Sc2ccccc21	-0.355 h (inactive)
C[C@](N)(Cc1ccc(O)cc1)C(=O)O	-0.34 h (inactive)
NC(=O)NO	-0.055 h (inactive)

List period change for every entry below, keeping the order given.
1. CCCCCN(CCCCC)C(=O)C(CCC(=O)O)NC(=O)c1ccc(Cl)c(Cl)c1 (stereo not drawn)
2. CCN1CCC[C@H]1CNC(=O)c1cc(S(N)(=O)=O)ccc1OC
3. Nc1nc2c(ncn2COC(CO)CO)c(=O)[nH]1
4. CN(C)CCC=C1c2ccccc2C=Cc2ccccc21
5. COc1cc2nc(N3CCN(C(=O)C4CCCO4)CC3)nc(N)c2cc1OC (stereo not drawn)
6. CN1CCC(=C2c3ccccc3C=Cc3ccccc32)CC1

0.13 h (inactive)
-0.035 h (inactive)
-0.27 h (inactive)
0.095 h (inactive)
0.02 h (inactive)
0.015 h (inactive)

List period change for every entry below, keeping the order given.
1. CC[N+](C)(C)Cc1ccccc1Br
2. Cc1cn[nH]c1
3. CCCN(CCC)C(=O)C(CCC(=O)O)NC(=O)c1ccccc1 (stereo not drawn)
4. CC(=O)O[C@]1(C(C)=O)CC[C@H]2[C@@H]3C=C(Cl)C4=CC(=O)[C@@H]5C[C@@H]5[C@]4(C)[C@H]3CC[C@@]21C

1. 0.095 h (inactive)
2. 0.23 h (inactive)
3. 0.02 h (inactive)
4. 0.03 h (inactive)

List period change for every entry below, keeping the order given.
1. O=C1NCC2(CCN(CCc3ccccc3)CC2)O1
2. CC(=O)Oc1ccccc1C(=O)O

0 h (inactive)
-0.135 h (inactive)
